# tgt: T1, soluble H-2K^b (soluble extracellular domains; heavy chain residues 1-274 with C-terminal His-tag and β2-microglobulin residues 1-99) (mouse)
# T1 chain: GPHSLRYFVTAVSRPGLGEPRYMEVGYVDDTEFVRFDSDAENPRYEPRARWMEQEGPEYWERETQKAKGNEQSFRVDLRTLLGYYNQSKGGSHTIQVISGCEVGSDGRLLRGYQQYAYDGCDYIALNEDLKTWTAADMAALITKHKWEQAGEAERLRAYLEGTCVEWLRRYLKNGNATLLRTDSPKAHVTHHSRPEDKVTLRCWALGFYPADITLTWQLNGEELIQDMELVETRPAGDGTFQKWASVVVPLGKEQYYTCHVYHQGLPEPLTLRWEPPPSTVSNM
# experimental_protocol: inhibition assay with soluble H-2K^b, 23° C.
parameter: Kd (nM)
Numbers only, in nM.

# input Item RGYVYQGL (modifications not checked) [VSV8 (RGYVYQGL), Vesicular stomatitis virus NP52-59] : provide Kd
# output 27
